test system: ATP; assay: switch fluorescence ratio, 500 uM ATP over buffer (Cy3 cluster intensity, sum of 5 cycles each) (fold (ratio)); higher = stronger signal-on switching upon ATP binding; sequences stand for … in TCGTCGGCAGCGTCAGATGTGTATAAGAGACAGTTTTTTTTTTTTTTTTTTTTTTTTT…TC; conditions: aptamer strand: ATP DNA aptamer (quencher-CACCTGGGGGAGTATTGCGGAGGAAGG + anchor), 100 nM annealed; ATP concentration: 500 uM;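 also: ATP exposure 15 min at 22 °C before imaging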
Endpoint name: switch fluorescence ratio

# Sequence, Measurement
measured = [
    ("AAACGTATGT", 0.998),
    ("CAAGTGAATG", 1.01),
    ("TCTGCTAAAA", 0.973),
    ("TCAGGTGTTT", 1.56),
    ("CGGCAATGTT", 1.73),
    ("TTTAAAGCCC", 1.01),
    ("ACCTTGAGAG", 1),
    ("CGGCGGGGGG", 1.08),
    ("TGGTGTTTGC", 1),
    ("TGTAGGGTGC", 1.07),
    ("ATGTGATTTG", 0.985),
    ("GAAGCAGATG", 1.16),
    ("GTATTTGGGA", 0.991),
    ("ATAAGTTAGT", 0.989),
    ("GTGTTTAAGA", 1.01),
    ("ACGCTAATGT", 1.35),
    ("GCATGAAGCA", 1),
    ("CATGTCTGTA", 1),
    ("GATGTGCACC", 0.983),
    ("TTATATTGGA", 0.971),
]

###

As shown below, each of these sequences has a reported switch fluorescence ratio value.
tested on: ATP; experiment: switch fluorescence ratio, 500 uM ATP over buffer (Cy3 cluster intensity, sum of 5 cycles each) (fold (ratio)); higher = stronger signal-on switching upon ATP binding; sequences stand for … in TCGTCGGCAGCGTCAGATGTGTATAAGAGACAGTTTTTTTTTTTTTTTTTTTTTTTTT…TC; conditions: aptamer strand: ATP DNA aptamer (quencher-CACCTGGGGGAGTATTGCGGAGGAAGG + anchor), 100 nM annealed; ATP concentration: 500 uM;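 also: ATP exposure 15 min at 22 °C before imaging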

# Sequence, switch fluorescence ratio
rows = [
    ("GTGTTTTGGT", 0.98),
    ("TCGGGGCCGT", 0.971),
    ("GTGTATCGAT", 1),
    ("ATGAGTAAAG", 0.999),
    ("TTGTTAAAGT", 1),
    ("GCTCATGAGC", 1.01),
    ("GCTGCGGGTC", 1.02),
    ("TGCGATGCGG", 0.979),
    ("CAGTGTACGG", 1.04),
    ("TGCCTATGGA", 1),
]

###

system: ATP; test: switch fluorescence ratio, 500 uM ATP over buffer (Cy3 cluster intensity, sum of 5 cycles each) (fold (ratio)); higher = stronger signal-on switching upon ATP binding; sequences stand for … in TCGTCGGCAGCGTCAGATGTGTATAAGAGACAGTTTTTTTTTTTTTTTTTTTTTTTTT…TC; conditions: aptamer strand: ATP DNA aptamer (quencher-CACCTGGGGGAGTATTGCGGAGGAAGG + anchor), 100 nM annealed; ATP concentration: 500 uM;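 also: ATP exposure 15 min at 22 °C before imaging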
Is switch fluorescence ratio at least 1? Then 1 (yes). If not, 0 (no).

# Sequence, Label class
rows = [
    ("TTGGGAAAAA", "1 (yes)"),
    ("CTGATGTACG", "1 (yes)"),
    ("GAGTCATTAA", "0 (no)"),
    ("TAGAAGGTGG", "1 (yes)"),
    ("TTTTGGGCAA", "1 (yes)"),
    ("TTATGTACTT", "1 (yes)"),
    ("TTTTAAGCAG", "1 (yes)"),
    ("GGGGTAGGTG", "1 (yes)"),
    ("TTTGATAGTC", "0 (no)"),
    ("GGGTTGTCTG", "0 (no)"),
    ("TGCGTAGGAA", "1 (yes)"),
    ("AAAACGACCC", "1 (yes)"),
    ("GTTTGGGCTT", "1 (yes)"),
    ("CGTTTTTCTT", "0 (no)"),
    ("CAAGGCTGCA", "1 (yes)"),
    ("CCAGGTAGAG", "1 (yes)"),
    ("GCCATCGGGG", "1 (yes)"),
    ("TACAGGTTGT", "1 (yes)"),
    ("CTGCGTCCAT", "1 (yes)"),
    ("TCTTCATGCG", "1 (yes)"),
    ("CTTTGTCGGT", "1 (yes)"),
    ("GGTGAAGACC", "0 (no)"),
    ("ACAGATACAG", "1 (yes)"),
    ("TTATGTCAGG", "1 (yes)"),
    ("GTTGACTGGT", "0 (no)"),
    ("TGTACGTTGG", "1 (yes)"),
    ("CTTAGTTTCG", "1 (yes)"),
]
